Data credit: ChEMBL document CHEMBL5058577

- Test system: HEK-293T
- experiment_description: Multiplex assay against HEK293T
- Type: toxicity, cell-based
- settings: human, 48 h, 1 µM, compound concentration 1 uM, replicate 1
measured_parameter: Population Tubulin-Different-Phenotype (%)

Sample Cc1ccc(-c2ccc(F)cc2COc2ccc(CCC(=O)O)cc2)cc1 ; Population Tubulin-Different-Phenotype (%) observed: 8%

Sample CCOc1c2c(c(OCC)c3ncccc13)CN(c1ccc(CS(=O)(=O)NC(=O)Cc3ccccc3OC)cc1C)C2=O ; Population Tubulin-Different-Phenotype (%) observed: 13%

Sample O=C1COc2nccc(-c3ccccc3F)c2CN1Cc1cc(C(F)(F)F)cc(C(F)(F)F)c1 ; Population Tubulin-Different-Phenotype (%) observed: 14%

Sample CCCC(CCC)C(=O)O [VALPROIC ACID] ; Population Tubulin-Different-Phenotype (%) observed: 9%

Sample Cc1ccc(/C(=C\CN2CCCC2)c2ccccn2)cc1 [TRIPROLIDINE] ; Population Tubulin-Different-Phenotype (%) observed: 11%

Sample CN(C)CCCc1cc(C(=O)Nc2ccc(-c3ccncc3)cc2)ccc1O.Cl.Cl ; Population Tubulin-Different-Phenotype (%) observed: 14%

Sample Oc1c(CN2CCN(c3ccccn3)CC2)cc(Cl)c2cccnc12 ; Population Tubulin-Different-Phenotype (%) observed: 16%

Sample Cc1ccc(C(C)(O)c2nc3ccccc3s2)c(C)c1 (stereo not given) ; Population Tubulin-Different-Phenotype (%) observed: 12%

Sample COc1ccc2c(c1)C(C(=O)N(Cc1ccc(N(C)C)cc1)c1ccc(C(C)C)cc1)CCC2.Cl (stereo not given) ; Population Tubulin-Different-Phenotype (%) observed: 10%

Sample CC[C@H]1OC(=O)[C@H](C)[C@@H](O[C@H]2C[C@@](C)(OC)[C@@H](O)[C@H](C)O2)[C@H](C)[C@@H](O[C@@H]2O[C@H](C)C[C@H](N(C)C)[C@H]2O)[C@@]2(C)CC(C)=C(O2)[C@H](C)[C@@H](O)[C@]1(C)O ; Population Tubulin-Different-Phenotype (%) observed: 21%

Sample CC(C)(C)c1ccc(S(=O)(=O)Nc2ccc(Cl)cc2C(=O)c2cc[n+]([O-])cc2)cc1 [VERCIRNON] ; Population Tubulin-Different-Phenotype (%) observed: 13%

Sample C[C@@H]1C[C@H]2[C@@H]3CCC4=CC(=O)C=C[C@]4(C)[C@@]3(F)[C@@H](O)C[C@]2(C)[C@@]1(O)C(=O)CO [DEXAMETHASONE] ; Population Tubulin-Different-Phenotype (%) observed: 12%

Sample CCCn1c(=O)c2[nH]c(C3CCCC3)nc2n(CCC)c1=O ; Population Tubulin-Different-Phenotype (%) observed: 17%

Sample Cc1ccccc1C(=O)Nc1ccc(C(=O)N2CCCC(N(C)C)c3ccccc32)cc1.Cl (stereo not given) ; Population Tubulin-Different-Phenotype (%) observed: 17%

Sample COc1cc(C(=O)N(CCCc2ccccc2)Cc2ccc(CC(=O)O)cc2)cc(OC)c1C ; Population Tubulin-Different-Phenotype (%) observed: 11%

###

Can you tell me Population Healthy Nuclei (%) for the items I'm about to list?
- Tested on: Fibroblast
- experiment_description: Multiplex assay against human fibroblast
- Type: toxicity, cell-based
- settings: 12 h, 10 µM, compound concentration 10 uM, replicate 2
Hi! Could you send only the number? It should be in %, unit omitted.

Sample O=S(=O)(c1ccccc1)c1cnc2c(N3CCNCC3)cccc2c1 [INTEPIRDINE] ; Population Healthy Nuclei (%) observed: 40

Sample CSCC[C@H](NC=O)C(=O)N[C@@H](CC(C)C)C(=O)N[C@@H](Cc1ccccc1)C(=O)O ; Population Healthy Nuclei (%) observed: 39

Sample CCCn1c(=O)c2[nH]c(C3CCCC3)nc2n(CCC)c1=O ; Population Healthy Nuclei (%) observed: 47

Sample CCCN1CCC[C@@H]2Cc3n[nH]cc3C[C@H]21.Cl [QUINPIROLE HYDROCHLORIDE] ; Population Healthy Nuclei (%) observed: 59

Sample O=C(O)c1cc2ccccc2c(Cc2c(O)c(C(=O)O)cc3ccccc23)c1O ; Population Healthy Nuclei (%) observed: 51

Sample N[C@@]1(C(=O)O)CO[C@H]2[C@H](C(=O)O)[C@H]21 ; Population Healthy Nuclei (%) observed: 51

Sample CN(C)c1ccnc2sc3c(=O)n(N4CCCCCC4)cnc3c12 ; Population Healthy Nuclei (%) observed: 30

Sample C[C@H]1[C@H]2CC[C@H]3[C@@H]4CC=C5C[C@@H](N(C)C)CC[C@]5(C)[C@H]4CC[C@]23CN1C ; Population Healthy Nuclei (%) observed: 45

Sample CCNC1(C(N)=O)CCN(c2ncnc3c2nc(-c2ccccc2Cl)n3-c2ccc(Cl)cc2)CC1 ; Population Healthy Nuclei (%) observed: 48

Sample COc1c(C)cc(NC(=O)c2nn(Cc3ccc(F)cc3)c3c2CN(C(=O)c2ccc[nH]2)C[C@]3(C)C(N)=O)cc1C ; Population Healthy Nuclei (%) observed: 38

Sample COc1ccc2c(c1)C(C(=O)N(Cc1ccc(N(C)C)cc1)c1ccc(C(C)C)cc1)CCC2.Cl (configuration not stated) ; Population Healthy Nuclei (%) observed: 51

Sample Cl.Clc1ccc2nsnc2c1NC1=NCCN1 [TIZANIDINE HYDROCHLORIDE] ; Population Healthy Nuclei (%) observed: 45

Sample COc1cc(C(=O)N(CCCc2ccccc2)Cc2ccc(CC(=O)O)cc2)cc(OC)c1C ; Population Healthy Nuclei (%) observed: 61

Sample O=C(NCCO)c1cccc(-c2cc(Nc3ccc(OC(F)(F)F)cc3)ncn2)c1 ; Population Healthy Nuclei (%) observed: 36

Sample COc1cc(NC(=O)CCN2CCC(OC(=O)Nc3ccccc3-c3ccccc3)CC2)c(Cl)cc1CNC[C@H](O)c1ccc(O)c2[nH]c(=O)ccc12 ; Population Healthy Nuclei (%) observed: 41

Sample CC[C@H]1OC(=O)[C@H](C)[C@@H](O[C@H]2C[C@@](C)(OC)[C@@H](O)[C@H](C)O2)[C@H](C)[C@@H](O[C@@H]2O[C@H](C)C[C@H](N(C)C)[C@H]2O)[C@@]2(C)CC(C)=C(O2)[C@H](C)[C@@H](O)[C@]1(C)O ; Population Healthy Nuclei (%) observed: 33

Sample Cc1ccc(F)cc1C(=O)Nc1ccc(C(=O)N2Cc3cccn3Cc3ccccc32)c(Cl)c1 ; Population Healthy Nuclei (%) observed: 46

Sample O=C1COc2nccc(-c3ccccc3F)c2CN1Cc1cc(C(F)(F)F)cc(C(F)(F)F)c1 ; Population Healthy Nuclei (%) observed: 51

Sample CN(C)CCCc1cc(C(=O)Nc2ccc(-c3ccncc3)cc2)ccc1O.Cl.Cl ; Population Healthy Nuclei (%) observed: 51

Sample Cc1ccc(/C(=C\CN2CCCC2)c2ccccn2)cc1 ; Population Healthy Nuclei (%) observed: 52

Sample Cc1ccc(C(C)(O)c2nc3ccccc3s2)c(C)c1 (configuration not stated) ; Population Healthy Nuclei (%) observed: 43

Sample Cc1nc2ccc(Oc3ccc(F)cc3)cc2c(=O)n1C[C@H]1CCCN(C(C)C)C1.Cl ; Population Healthy Nuclei (%) observed: 44
